Molecular target: T1, cynomolgus monkey ANGPTL4 N-terminal region (amino acid residues 1-130 of SEQ ID NO:490) with a C-terminal … (cynomolgus monkey (Macaca fascicularis), UniProt Q9BY76 26-130 (human entry))
T1 construct: also called MfANGPTL4(1-130)-His
T1 chain: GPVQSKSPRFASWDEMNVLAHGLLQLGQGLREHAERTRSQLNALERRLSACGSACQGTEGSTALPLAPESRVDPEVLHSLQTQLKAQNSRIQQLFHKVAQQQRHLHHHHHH
Experiment: SPR (Biacore), 25° C., pH 7.2, antigen amino-coupled 1,028 RU
quantity: Kd (nM)
Please state the figure in nM; there is no need to write the unit.

Before answering, review these 3 worked examples.
[
  {
    "binder": "H1H284P Fab fragment (Fab, V domains shown, Fab made by papain digestion of H1H284P (IgG1); also called H1H284 Fab) VH: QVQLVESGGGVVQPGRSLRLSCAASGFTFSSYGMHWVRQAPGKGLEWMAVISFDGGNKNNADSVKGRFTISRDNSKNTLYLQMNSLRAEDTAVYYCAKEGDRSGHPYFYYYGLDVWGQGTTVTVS VL: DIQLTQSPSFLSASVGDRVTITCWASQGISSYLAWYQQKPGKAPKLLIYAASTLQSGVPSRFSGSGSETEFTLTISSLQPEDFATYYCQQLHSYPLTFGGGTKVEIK",
    "measured-number": 10.1
  },
  {
    "binder": "H1H268P Fab fragment (Fab, V domains shown, Fab made by papain digestion of H1H268P (IgG1); also called H1H268 Fab) VH: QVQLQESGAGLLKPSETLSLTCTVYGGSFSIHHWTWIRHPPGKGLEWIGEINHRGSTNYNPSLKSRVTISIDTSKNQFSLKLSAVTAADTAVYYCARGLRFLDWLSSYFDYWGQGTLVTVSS VL: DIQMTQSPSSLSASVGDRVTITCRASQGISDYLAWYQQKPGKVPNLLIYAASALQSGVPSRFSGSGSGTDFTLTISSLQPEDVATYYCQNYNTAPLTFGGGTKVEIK",
    "measured-number": 6.42
  },
  {
    "binder": "H1H284P (antibody, V domains shown, also called entire H1H284 mAb; Full mAb) VH: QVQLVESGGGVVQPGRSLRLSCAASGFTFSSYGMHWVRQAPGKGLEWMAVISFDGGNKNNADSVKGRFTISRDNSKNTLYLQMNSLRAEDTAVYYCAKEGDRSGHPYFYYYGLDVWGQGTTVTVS VL: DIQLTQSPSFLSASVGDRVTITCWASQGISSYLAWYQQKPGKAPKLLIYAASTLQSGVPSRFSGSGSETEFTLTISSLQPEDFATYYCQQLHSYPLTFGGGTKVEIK",
    "measured-number": 0.125
  }
]

Provide Kd value for the following binder: H1H268P (antibody, V domains shown, also called entire H1H268 mAb; Full mAb) VH: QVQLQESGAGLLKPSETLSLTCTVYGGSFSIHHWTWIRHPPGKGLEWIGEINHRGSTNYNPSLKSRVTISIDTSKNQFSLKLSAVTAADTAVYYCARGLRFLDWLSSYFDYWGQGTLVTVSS VL: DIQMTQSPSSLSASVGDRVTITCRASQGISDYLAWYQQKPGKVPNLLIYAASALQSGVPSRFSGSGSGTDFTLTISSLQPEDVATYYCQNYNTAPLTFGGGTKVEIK
0.122
